# Read-out: Interleukin 17F (IL17F), IL17F (gene 112744)
# assay remarks: BSK_BT_xIL17F: BioMAP Diversity Plus: BT Assay for Interleukin 17F (IL17F) Biomarker Activity (AID 2284243)
# conditions: primary human B cells with PBMC
Activity calls are given as the source filed them. Rule for the calls: active = hit-call score of the fitted dose curve at least 0.9, where 1 is the maximum; inactive = score below 0.9.
endpoint label: AC50

Before answering, review these 10 worked examples.
CCCCNc1ccc(NCCCC)c2c1C(=O)c1ccccc1C2=O :: inactive
C/C=C\C/C=C/CCCCCCCCOC(C)=O :: 25.5 µM (active)
C=CC(=O)OCC(Br)CBr (stereo not drawn) :: 15.4 µM (active)
c1ccc2c(c1)ccc1cc3c(ccc4ccccc43)cc12 :: inactive
CC(C)(c1cc(Br)c(OCCO)c(Br)c1)c1cc(Br)c(OCCO)c(Br)c1 :: 23.8 µM (active)
CCCCC/C=C\C/C=C\CCCCCCCC(=O)OC :: 25.2 µM (active)
CCOc1nc(F)cc2nc(S(=O)(=O)Nc3c(Cl)cccc3C(=O)OC)nn12 :: inactive
CCO[Si](CCCN=C=O)(OCC)OCC :: inactive
c1ccc(-c2ccccn2)nc1 :: 27.6 µM (active)
C=CCOCC(O)CCl (stereo not drawn) :: inactive

May I ask what AC50 has been recorded for `C=CCOc1c(Br)cc(Br)cc1Br` ?
26.8 µM (active)

May I ask what AC50 has been recorded for `S=C(NC1CCCCC1)NC1CCCCC1` ?
inactive

May I ask what AC50 has been recorded for `CCCCCCCCCCCCCCCC[N+](C)(C)CC` ?
2.28 µM (active)

May I ask what AC50 has been recorded for CCCCC(CC)COC(=O)c1ccccc1O (stereo not drawn) ?
inactive

May I ask what AC50 has been recorded for `N#[N+]c1ccc2c(S(=O)(=O)[O-])cccc2c1O` ?
inactive

May I ask what AC50 has been recorded for `COCc1c(C(C)C)nc(C(C)C)c(/C=C/[C@@H](O)C[C@@H](O)CC(=O)O)c1-c1ccc(F)cc1` ?
0.57 µM (active)

May I ask what AC50 has been recorded for `CC(C)C(=O)C(C)C` ?
inactive

May I ask what AC50 has been recorded for `c1ccc2c(c1)ccc1ncccc12` ?
20 µM (active)
